# Target Desc: mouse CRF receptor type 2β (mouse) (UniProt Q60748)
# Test Description: radioligand displacement ([125I-Tyr0,Glu1,Nle17]-sauvagine), CHO membranes
Where no end group is shown, it is not given here.
Measured Ki by item
Reply numerically in nM, unit not repeated.

For record FTLSLDVPTNIMNILFNIDKAKNLRAKAAANAQLMAQI-NH2 [Urocortin III (mouse)] the listed Ki is 1.8

For record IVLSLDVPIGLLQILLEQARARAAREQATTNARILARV (peptide, UniProt Q96RP3 72-109, looked up) [Urocortin II (human)] the listed Ki is 0.5

For record FTLSLDVPTNIMNLLFNIAKAKNLRAQAAANAHLMAQI-NH2 [Urocortin III (human)] the listed Ki is 13.5

For record VILSLDVPIGLLRILLEQARYKAARNQAATNAQILAHV (peptide, UniProt Q99ML8 73-110, looked up) [Urocortin II (mouse)] the listed Ki is 0.66
